# Tested on: SCC-9 (Oral Cavity Carcinoma);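 further: after 72 h of two-drug dosing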
# TEST DETAILS: Bliss excess, mean over the matrix (fraction); higher = more synergy
Exercise: state measured Bliss excess for each of the molecules provided.
Please reply with the number alone, leaving off any unit.

Query :: Which measured Bliss excess value corresponds to Cc1c2c(nn1C)CSCc1cc(n(C)n1)CSc1cc(c3ccccc3c1)OCCCc1c(C(=O)O)n(C)c3c-2c(Cl)ccc13 [AZD5991] + CC1(C)CCC(CN2CCN(c3ccc(C(=O)NS(=O)(=O)c4ccc(NCC5CCOCC5)c([N+](=O)[O-])c4)c(Oc4cnc5[nH]ccc5c4)c3)CC2)=C(c2ccc(Cl)cc2)C1 [Venetoclax] (first compound max 1 µM, 7x7, partner max 1 µM) ?
Result :: -0.0278

Query :: Which measured Bliss excess value corresponds to N#Cc1cnc(Nc2cc(NC[C@H]3CNCCO3)c(C(F)(F)F)cn2)cn1 [SRA737] + Nc1ccn([C@@H]2O[C@H](CO)[C@@H](O)C2(F)F)c(=O)n1 [Gemcitabine] (first compound max 10 µM, 7x7, partner max 0.3 µM) ?
Result :: 0.0211

Query :: Which measured Bliss excess value corresponds to C=CCn1c(=O)c2cnc(Nc3ccc(N4CCN(C)CC4)cc3)nc2n1-c1cccc(C(C)(C)O)n1 [AZD1775] + C1CN(CCC1(C(=O)N[C@@H](CCO)C2=CC=C(C=C2)Cl)N)C3=NC=NC4=C3C=CN4 [Capivasertib] (first compound max 3 µM, partner max 3 µM) ?
Result :: 0.0038

----------
# System: SCC-3 (B-Cell Non-Hodgkin's Lymphoma)
# TEST DETAILS: combination Emax (second highest fraction inhibited in the dose matrix, 72 h); higher = more inhibition; extreme values may be limits of the assay
Please use the following combination Emax ranges when assigning a class: lower bin = under 0.4, middle bin = from 0.4 up to 0.9, upper bin = 0.9 and over

Query :: Each molecule maps to one class by combination Emax. Which class for CN(CCO)CC[C@H](CSc1ccccc1)Nc1ccc(S(=O)(=O)NC(=O)c2ccc(N3CCC([C@@H](O)c4ccccc4-c4ccc(Cl)cc4)CC3)cc2)cc1S(=O)(=O)C(F)(F)F [AZD4320] + Cn1cnc2c(F)c(Nc3ccc(Br)cc3Cl)c(C(=O)NOCCO)cc21 [Selumetinib] (first compound max 1 µM, 7x7, partner max 3 µM) ?
Result :: middle bin

Query :: Each molecule maps to one class by combination Emax. Which class for COc1nnc2ccc(N3CCC(c4ccc(OCCN5CCN(C)C(=O)[C@H]5C)cc4)CC3)nn12 [AZD5153] + Cc1c2c(nn1C)CSCc1cc(n(C)n1)CSc1cc(c3ccccc3c1)OCCCc1c(C(=O)O)n(C)c3c-2c(Cl)ccc13 [AZD5991] (first compound max 1 µM, 7x7, partner max 1 µM) ?
Result :: upper bin

Query :: Each molecule maps to one class by combination Emax. Which class for Cc1c2c(nn1C)CSCc1cc(n(C)n1)CSc1cc(c3ccccc3c1)OCCCc1c(C(=O)O)n(C)c3c-2c(Cl)ccc13 [AZD5991] + C[C@@H]1COCCN1C2=NC(=NC(=C2)C3(CC3)[S@](=N)(=O)C)C4=C5C=CNC5=NC=C4 [AZD6738] (first compound max 1 µM, 7x7, partner max 10 µM) ?
Result :: upper bin

Query :: Each molecule maps to one class by combination Emax. Which class for CCN(CCO)CCCOc1ccc2c(Nc3cc(CC(=O)Nc4cccc(F)c4)[nH]n3)ncnc2c1 [AZD2811] + C[C@@H]1COCCN1C2=NC(=NC(=C2)C3(CC3)[S@](=N)(=O)C)C4=C5C=CNC5=NC=C4 [AZD6738] (first compound max 1 µM, 7x7, partner max 10 µM) ?
Result :: upper bin

Query :: Each molecule maps to one class by combination Emax. Which class for CC1(C)CCC(CN2CCN(c3ccc(C(=O)NS(=O)(=O)c4ccc(NCC5CCOCC5)c([N+](=O)[O-])c4)c(Oc4cnc5[nH]ccc5c4)c3)CC2)=C(c2ccc(Cl)cc2)C1 [Venetoclax] + CCN(CCO)CCCOc1ccc2c(Nc3cc(CC(=O)Nc4cccc(F)c4)[nH]n3)ncnc2c1 [AZD2811] (first compound max 1 µM, 7x7, partner max 1 µM) ?
Result :: lower bin

Query :: Each molecule maps to one class by combination Emax. Which class for COc1cc2c(cc1OCCCCCOc1cc3c(cc1OC)C(=O)N1C=C(C)C[C@H]1C=N3)N=C[C@@H]1CC(C)=CN1C2=O [SG3199] + O=C(c1cc(Cc2n[nH]c(=O)c3ccccc23)ccc1F)N1CCN(C(=O)C2CC2)CC1 [Olaparib] (first compound max 0.001 µM, 7x7, partner max 10 µM) ?
Result :: middle bin

Query :: Each molecule maps to one class by combination Emax. Which class for C[C@@H](c1ccc2nccn2c1)n1nnc2ncc(-c3cnn(C)c3)nc21 [Savolitinib] + Cc1c2c(nn1C)CSCc1cc(n(C)n1)CSc1cc(c3ccccc3c1)OCCCc1c(C(=O)O)n(C)c3c-2c(Cl)ccc13 [AZD5991] (first compound max 1 µM, 7x7, partner max 1 µM) ?
Result :: lower bin

Query :: Each molecule maps to one class by combination Emax. Which class for CC1(C)CCC(CN2CCN(c3ccc(C(=O)NS(=O)(=O)c4ccc(NCC5CCOCC5)c([N+](=O)[O-])c4)c(Oc4cnc5[nH]ccc5c4)c3)CC2)=C(c2ccc(Cl)cc2)C1 [Venetoclax] + Cn1cnc2c(F)c(Nc3ccc(Br)cc3Cl)c(C(=O)NOCCO)cc21 [Selumetinib] (first compound max 1 µM, 7x7, partner max 3 µM) ?
Result :: lower bin

Query :: Each molecule maps to one class by combination Emax. Which class for CN(CCO)CC[C@H](CSc1ccccc1)Nc1ccc(S(=O)(=O)NC(=O)c2ccc(N3CCC([C@@H](O)c4ccccc4-c4ccc(Cl)cc4)CC3)cc2)cc1S(=O)(=O)C(F)(F)F [AZD4320] + C[C@@H]1COCCN1C2=NC(=NC(=C2)C3(CC3)[S@](=N)(=O)C)C4=C5C=CNC5=NC=C4 [AZD6738] (first compound max 1 µM, 7x7, partner max 10 µM) ?
Result :: upper bin

----------
# Tested on: KINGS-1 (Low Grade Glioma)
# TEST DETAILS: combination Emax (second highest fraction inhibited in the dose matrix, 72 h); higher = more inhibition; extreme values may be limits of the assay
Exercise: state measured combination Emax for each of the compounds provided.

Query :: Which measured combination Emax value corresponds to CC(=O)c1c(C)c2cnc(Nc3ccc(N4CCNCC4)cn3)nc2n(C2CCCC2)c1=O [Palbociclib] + CC1(C)CCC(CN2CCN(c3ccc(C(=O)NS(=O)(=O)c4ccc(NCC5CCOCC5)c([N+](=O)[O-])c4)c(Oc4cnc5[nH]ccc5c4)c3)CC2)=C(c2ccc(Cl)cc2)C1 [Venetoclax] (first compound max 10 µM, 7x7, partner max 1 µM) ?
Result :: 0.206

Query :: Which measured combination Emax value corresponds to CC1(C)CCC(CN2CCN(c3ccc(C(=O)NS(=O)(=O)c4ccc(NCC5CCOCC5)c([N+](=O)[O-])c4)c(Oc4cnc5[nH]ccc5c4)c3)CC2)=C(c2ccc(Cl)cc2)C1 [Venetoclax] + C=CCn1c(=O)c2cnc(Nc3ccc(N4CCN(C)CC4)cc3)nc2n1-c1cccc(C(C)(C)O)n1 [AZD1775] (first compound max 1 µM, partner max 1 µM) ?
Result :: 0.567

Query :: Which measured combination Emax value corresponds to N#Cc1cnc(Nc2cc(NC[C@H]3CNCCO3)c(C(F)(F)F)cn2)cn1 [SRA737] + C=CCn1c(=O)c2cnc(Nc3ccc(N4CCN(C)CC4)cc3)nc2n1-c1cccc(C(C)(C)O)n1 [AZD1775] (first compound max 10 µM, partner max 1 µM) ?
Result :: 0.412

----------
# Test system: EW-18 (Ewing's Sarcoma)
# TEST DETAILS: combination Emax (second highest fraction inhibited in the dose matrix, 72 h); higher = more inhibition; extreme values may be limits of the assay
combination Emax of 0.7 or higher: YES. Under 0.7: NO.

Query :: Please tell me: is the compound COc1cccc(OCCCN)c1-c1cc(Nc2cnc(C#N)cn2)n[nH]1 [Prexasertib] + CN(C)CCCOc1ccc(-c2ccc3ncc4c(c3c2)n(C2CCOCC2)c(=O)n4C)cn1 [AZD0156] (first compound max 1 µM, 7x7, partner max 1 µM) at or over 0.7 in terms of combination Emax?
Result :: YES

Query :: Please tell me: is the compound Cc1cc2ncnn2cc1Nc1ncc2c(n1)n(C1CCOCC1)c(=O)n2C [AZD7648] + CN(C)CCCOc1ccc(-c2ccc3ncc4c(c3c2)n(C2CCOCC2)c(=O)n4C)cn1 [AZD0156] (first compound max 10 µM, 7x7, partner max 1 µM) at or over 0.7 in terms of combination Emax?
Result :: NO

Query :: Please tell me: is the compound C=CCn1c(=O)c2cnc(Nc3ccc(N4CCN(C)CC4)cc3)nc2n1-c1cccc(C(C)(C)O)n1 [AZD1775] + C[C@@H]1COCCN1C2=NC(=NC(=C2)C3(CC3)[S@](=N)(=O)C)C4=C5C=CNC5=NC=C4 [AZD6738] (first compound max 1 µM, partner max 10 µM) at or over 0.7 in terms of combination Emax?
Result :: NO

Query :: Please tell me: is the compound COc1cc2ncnc(Nc3ccc(F)c(Cl)c3)c2cc1OCCCN1CCOCC1 [Gefitinib] + CC(C)n1c(=O)n(C)c2cnc3cc(F)c(-c4ccc(OCCCN5CCCCC5)nc4)cc3c21 [AZD1390] (first compound max 10 µM, 7x7, partner max 0.3 µM) at or over 0.7 in terms of combination Emax?
Result :: NO

Query :: Please tell me: is the compound CCc1c2c(nc3ccc(O)cc13)-c1cc3c(c(=O)n1C2)COC(=O)[C@]3(O)CC [SN-38] + CN(C)CCCOc1ccc(-c2ccc3ncc4c(c3c2)n(C2CCOCC2)c(=O)n4C)cn1 [AZD0156] (first compound max 0.3 µM, 7x7, partner max 1 µM) at or over 0.7 in terms of combination Emax?
Result :: NO

Query :: Please tell me: is the compound CC1(C)CCC(CN2CCN(c3ccc(C(=O)NS(=O)(=O)c4ccc(NCC5CCOCC5)c([N+](=O)[O-])c4)c(Oc4cnc5[nH]ccc5c4)c3)CC2)=C(c2ccc(Cl)cc2)C1 [Venetoclax] + COc1cc(Nc2ncc3c(n2)-c2ccc(Cl)cc2C(c2c(F)cccc2OC)=NC3)ccc1C(=O)O [Alisertib] (first compound max 1 µM, 7x7, partner max 10 µM) at or over 0.7 in terms of combination Emax?
Result :: YES

Query :: Please tell me: is the compound CCN(CCO)CCCOc1ccc2c(Nc3cc(CC(=O)Nc4cccc(F)c4)[nH]n3)ncnc2c1 [AZD2811] + O=C(c1cc(Cc2n[nH]c(=O)c3ccccc23)ccc1F)N1CCN(C(=O)C2CC2)CC1 [Olaparib] (first compound max 1 µM, 7x7, partner max 10 µM) at or over 0.7 in terms of combination Emax?
Result :: NO

The measured values listed here are drawn from the supplement of paper PMC11061612.
